These measurements were taken from patent US20260200920A1.

This listing pairs molecules with measured IC50.
- target_or_system: human recombinant kinase full-length AKT1 E17K (Homo sapiens, UniProt P31749, E17K)
- Construct: Purified human recombinant kinase full-length AKT1 E17K was expressed in insect cells
- Sequence (P31749 whole entry E17K): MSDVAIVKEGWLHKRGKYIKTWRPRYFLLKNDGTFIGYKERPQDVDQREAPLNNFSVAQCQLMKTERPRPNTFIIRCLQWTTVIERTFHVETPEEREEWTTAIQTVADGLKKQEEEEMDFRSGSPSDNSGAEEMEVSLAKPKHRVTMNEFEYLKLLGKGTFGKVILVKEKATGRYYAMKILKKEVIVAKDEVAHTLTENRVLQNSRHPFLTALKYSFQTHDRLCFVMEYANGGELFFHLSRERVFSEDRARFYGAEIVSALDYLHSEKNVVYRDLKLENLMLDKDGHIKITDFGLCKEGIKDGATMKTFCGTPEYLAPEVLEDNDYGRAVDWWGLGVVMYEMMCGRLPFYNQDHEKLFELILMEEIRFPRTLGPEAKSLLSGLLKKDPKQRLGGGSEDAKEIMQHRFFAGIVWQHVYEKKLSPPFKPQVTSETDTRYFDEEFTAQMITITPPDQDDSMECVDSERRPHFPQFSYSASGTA
- test_description: AKT1 E17K kinase assay (TR-FRET, Lance)
- details: 0.6 nM AKT1 E17K, 50 nM Ulight-CREBtide, either 50 μM ATP or 2 mM ATP, 60 min at RT
- Method: AKT1 E17K kinase assay: Inhibitory effects of compounds on AKT1 E17K were undertaken in a 10-pt dose response kinase activity assay measuring phospho-peptide product formation based on TR-FRET signal as described in the following paragraph. Purified human recombinant kinase full-length AKT1 E17K was expressed in insect cells and activated in vitro by PDPK1. […] The fluorescence emissions at 620 nm and 665 nm after excitation at 350 nm was measured using Envision reader. […]

Nc1ncccc1-c1nc2ccc(-c3ccccc3)nc2n1-c1ccc(N2CCC(C(=O)O)C2)nc1 (stereo not shown) [Compound I-25]: 0.5 to 2 µM

IN: Report its IC50 with human recombinant kinase full-length AKT1 E17K (Homo sapiens, UniProt P31749, E17K) as the test system: CN(Cc1ccc(-n2c(-c3cccnc3N)nc3ccc(-c4ccccc4)nc32)cc1)C1CC[C@@H](C(=O)O)C1 (stereo partly shown) [Compound I-173]
OUT: 0.5 to 2 µM

IN: Report its IC50 with human recombinant kinase full-length AKT1 E17K (Homo sapiens, UniProt P31749, E17K) as the test system: CC1(C)C[C@H](CN2CC(c3ccc(-n4c(-c5cccnc5N)nc5ccc(-c6ccccc6)nc54)cc3)C2)CC[C@@H]1C(=O)O [Compound I-70]
OUT: < 0.5 µM

IN: Report its IC50 with human recombinant kinase full-length AKT1 E17K (Homo sapiens, UniProt P31749, E17K) as the test system: CC(NC1CCC(C(=O)O)C1)c1ccc(-n2c(-c3cccnc3N)nc3ccc(-c4ccccc4)nc32)cc1F (stereo not shown) [Compound I-81]
OUT: ≥ 2 µM

* * *

- target_or_system: human recombinant kinase full-length AKT1 E17K (Homo sapiens, UniProt P31749, E17K)
- Construct: Purified human recombinant kinase full-length AKT1 E17K was expressed in insect cells
- test_description: AKT1 E17K kinase assay (TR-FRET, Lance)
- details: 0.6 nM AKT1 E17K, 50 nM Ulight-CREBtide, either 50 μM ATP or 2 mM ATP, 60 min at RT
This listing pairs compounds with measured IC50.

As a guide, the following entries are already answered.
Cc1cc(C2CN(CC3CC4(C3)CC(C(=O)O)C4)C2)ccc1-n1c(-c2cccnc2N)nc2ccc(-c3ccccc3)cc21 (stereo not shown) [Compound I-224]: ≥ 2000 nM
Nc1ncccc1-c1nc2ccc(-c3ccccc3)nc2n1-c1ccc(N2CCCC(C(=O)O)C2)nc1 (stereo not shown) [Compound I-28]: ≥ 2000 nM
CC(C(=O)O)C1CCN(Cc2ccc(-n3c(-c4cccnc4N)nc4ccc(-c5ccccc5)nc43)cc2)CC1 (stereo not shown) [Compound I-98]: ≥ 2000 nM
Nc1ncccc1-c1nc2ccc(-c3ccccc3)nc2n1-c1ccc(NC(=O)[C@H]2CC[C@@H](C(=O)O)CC2)cc1 [Compound I-3]: < 500 nM
Cc1cc(C2CN(CC3CC4CC(C(=O)O)CC4C3)C2)ccc1-n1c(-c2cccnc2N)nc2ccc(-c3ccccc3F)nc21 (stereo not shown) [Compound I-201]: < 500 nM
CC(C)(NC1CCC(C(=O)O)CC1)c1ccc(-n2c(-c3cccnc3N)nc3ccc(-c4ccccc4)nc32)cc1 (stereo not shown) [Compound I-89]: ≥ 2000 nM

IN: Identify IC50 associated with the compound Nc1ncccc1-c1nc2ccc(-c3ccccc3)nc2n1-c1ccc(CN[C@H]2CC[C@@H](C(=O)O)CC2)cc1 [Compound I-91]
OUT: < 500 nM

* * *

- target_or_system: human recombinant kinase full-length AKT1 E17K (Homo sapiens, UniProt P31749, E17K)
- Construct: Purified human recombinant kinase full-length AKT1 E17K was expressed in insect cells
- test_description: AKT1 E17K kinase assay (TR-FRET, Lance)
- details: 0.6 nM AKT1 E17K, 50 nM Ulight-CREBtide, either 50 μM ATP or 2 mM ATP, 60 min at RT
This listing pairs compounds with measured IC50.

Cc1c(-n2c(-c3cccnc3N)nc3ccc(-c4ccccc4)nc32)ccc(NC(=O)C2CC3(CC(C(=O)O)C3)C2)c1F (centres unmarked): ≥ 2000 nM
Cc1cc(C2CN(C[C@H]3CC[C@@H](C(=O)O)CC3)C2)ccc1-n1c(-c2cccnc2N)nc2ccc(-c3ccccc3F)nc21: 500 to 2000 nM
Nc1ncccc1-c1nc2ccc(-c3ccccc3)nc2n1-c1ccc(NC(=O)C2CCC(C(=O)O)CC2)cc1F (centres unmarked): 500 to 2000 nM
Nc1ncccc1-c1nc2ccc(-c3ccccc3)nc2n1-c1ccc(C2CN(C[C@H]3CC[C@H](C(=O)O)CC3)C2)c(F)c1: 500 to 2000 nM
CN(Cc1ccc(-n2c(-c3cccnc3N)nc3ccc(-c4ccccc4)nc32)cc1)[C@@H]1CC[C@@H](C(=O)O)C1 [Compound I-170]: < 500 nM
Nc1ncccc1-c1nc2ccc(-c3ccccc3)cc2n1-c1ccc(NC(=O)C2CCCC(C(=O)O)C2)nc1 (centres unmarked): 500 to 2000 nM
Nc1ncccc1-c1nc2ccc(N3CCOCC3)cc2n1-c1ccc(NC(=O)[C@H]2CC[C@H](C(=O)O)CC2)cc1: ≥ 2000 nM
C[C@H]([C@H]1CC[C@H](C(=O)O)CC1)N1CC(c2ccc(-n3c(-c4cccnc4N)nc4ccc(-c5ccccc5)nc43)cc2)C1: < 500 nM

IN: Identify IC50 associated with the compound `CNC(=O)[C@H]1CC[C@H](C(=O)Nc2ccc(-n3c(-c4cccnc4N)nc4ccc(-c5ccccc5)nc43)c(C)n2)CC1`
OUT: 500 to 2000 nM

IN: Identify IC50 associated with the compound Nc1ncccc1-c1nc2ccc(-c3ccccc3)nc2n1-c1ccc(C2CN(C[C@H]3CC4CC3CC4C(=O)O)C2)cc1 (some centres unmarked)
OUT: < 500 nM

IN: Identify IC50 associated with the compound `Nc1ncccc1-c1nc2ccc(-c3ccccc3)nc2n1-c1ccc(C2CCN(C[C@H]3CC[C@H](C(=O)O)CC3)CC2)cc1`
OUT: 500 to 2000 nM

IN: Identify IC50 associated with the compound `Nc1ncccc1-c1nc2ccc(-c3ccccc3)nc2n1-c1ccc(NC(=O)[C@H]2CC[C@H](C(N)=O)CC2)nc1`
OUT: < 500 nM

IN: Identify IC50 associated with the compound `CC1(C)C[C@H](CN2CC(c3ccc(-n4c(-c5cccnc5N)nc5ccc(-c6ccccc6)nc54)cc3)C2)CC(C)(C)[C@H]1C(=O)O`
OUT: < 500 nM

IN: Identify IC50 associated with the compound `Nc1ncccc1-c1nc2ccc(-c3ccccc3)nc2n1-c1ccc(C2CCN(C(=O)[C@H]3CC[C@H](C(=O)O)CC3)CC2)cc1`
OUT: < 500 nM

IN: Identify IC50 associated with the compound `Cc1ccccc1-c1ccc2nc(-c3cccnc3N)n(-c3ccc(C4CN(C[C@H]5CC[C@H](C(=O)O)CC5)C4)cc3C)c2n1`
OUT: ≥ 2000 nM

IN: Identify IC50 associated with the compound Nc1ncccc1-c1nc2ccc(-c3ccccc3)cc2n1-c1ccc(NC(=O)C2CCC(C(=O)O)C2)nc1 (centres unmarked)
OUT: ≥ 2000 nM

IN: Identify IC50 associated with the compound CN(Cc1ccc(-n2c(-c3cccnc3N)nc3ccc(-c4ccccc4)nc32)cc1)C1CC[C@H](C(=O)O)C1 (some centres unmarked)
OUT: < 500 nM

IN: Identify IC50 associated with the compound `Nc1ncccc1-c1nc2ccc(-c3ccccc3)nc2n1-c1ccc(C2CN(C(=O)C3CC(=O)CC(=O)C3)C2)cc1`
OUT: < 500 nM

IN: Identify IC50 associated with the compound `Cc1nc(NC(=O)N2CCC(C(=O)O)CC2)ccc1-n1c(-c2cccnc2N)nc2ccc(-c3ccccc3)nc21`
OUT: < 500 nM

IN: Identify IC50 associated with the compound `CC1(C)C[C@H](CN2CCC(c3ccc(-n4c(-c5cccnc5N)nc5ccc(-c6ccccc6)nc54)cc3)CC2)CC(C)(C)[C@H]1C(=O)O`
OUT: ≥ 2000 nM

IN: Identify IC50 associated with the compound `Nc1ncccc1-c1nc2ccc(-c3ccccc3)nc2n1-c1ccc(NC(=O)[C@H]2CC[C@H](C(=O)O)CC2)c(F)c1`
OUT: 500 to 2000 nM

IN: Identify IC50 associated with the compound `Nc1ncccc1-c1nc2ccc(-c3ccccc3)nc2n1-c1ccc(C(=O)N2CCC(C(=O)O)CC2)nc1`
OUT: ≥ 2000 nM

IN: Identify IC50 associated with the compound `CC1(C)C[C@H](CN2CCC(c3ccc(-n4c(-c5cccnc5N)nc5ccc(-c6ccccc6)nc54)cc3)CC2)CC(C)(C)[C@@H]1C(=O)O`
OUT: ≥ 2000 nM
